target: PDK4A (Homo sapiens, UniProt Q16654); construct: purchased in-house DSF kinase panel (SGC-style construct names; the trailing letter is the construct ID); assay: DSF Tm panel; format: binding; settings: 10 μM compound
Sequence (Q16654 whole entry): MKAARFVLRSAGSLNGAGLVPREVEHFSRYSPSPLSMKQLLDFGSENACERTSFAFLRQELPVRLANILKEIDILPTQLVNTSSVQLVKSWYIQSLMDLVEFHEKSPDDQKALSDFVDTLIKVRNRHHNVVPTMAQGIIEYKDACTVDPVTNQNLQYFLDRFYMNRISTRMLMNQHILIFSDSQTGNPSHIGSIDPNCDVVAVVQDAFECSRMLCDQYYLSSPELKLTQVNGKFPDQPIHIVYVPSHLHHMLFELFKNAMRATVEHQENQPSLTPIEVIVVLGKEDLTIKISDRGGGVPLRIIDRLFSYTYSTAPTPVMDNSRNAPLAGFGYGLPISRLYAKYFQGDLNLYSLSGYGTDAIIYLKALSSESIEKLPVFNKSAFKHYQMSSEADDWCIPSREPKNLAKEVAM
Kind request: treat 0.8 °C as inclusive, so ΔTm at 10 µM at 0.8 °C or higher is condition met, anything lower is condition not met.

// known answers, use as guide
substancesmiles=Cc1cc(Cl)ccc1CNC(=O)Nc1ccc2cc1OCCOCCNc1ccn3ncc-2c3n1 measurementtarget="PDK4A (Homo sapiens, UniProt Q16654)" classlabel="condition not met"
substancesmiles=CN1CCN(C(=O)Nc2ccc3cc2OCCOCCNc2ccn4ncc-3c4n2)CC1 measurementtarget="PDK4A (Homo sapiens, UniProt Q16654)" classlabel="condition not met"
substancesmiles=O=C(NCc1ccc(Cl)cc1Cl)Nc1ccc2cc1OCCOCCNc1ccn3ncc-2c3n1 measurementtarget="PDK4A (Homo sapiens, UniProt Q16654)" classlabel="condition met"
substancesmiles=O=C(NCc1ccccc1)Nc1ccc2cc1OCCOCCNc1ccn3ncc-2c3n1 measurementtarget="PDK4A (Homo sapiens, UniProt Q16654)" classlabel="condition not met"
substancesmiles=O=C(NCc1cccc(Cl)c1)Nc1ccc2cc1OCCOCCNc1ccn3ncc-2c3n1 measurementtarget="PDK4A (Homo sapiens, UniProt Q16654)" classlabel="condition met"

Shift focus to the following entry.
Query block: Is the recorded value of ΔTm at 10 µM equal to or greater than 0.8 °C for this compound? O=C(NCc1ccc(Cl)cc1F)Nc1ccc2cc1OCCOCCNc1ccn3ncc-2c3n1
Result block: condition met

----------
Biological target: EPHA5A (Homo sapiens, UniProt P54756)
Construct: purchased in-house DSF kinase panel (SGC-style construct names; the trailing letter is the construct ID)
Sequence (P54756 653-939): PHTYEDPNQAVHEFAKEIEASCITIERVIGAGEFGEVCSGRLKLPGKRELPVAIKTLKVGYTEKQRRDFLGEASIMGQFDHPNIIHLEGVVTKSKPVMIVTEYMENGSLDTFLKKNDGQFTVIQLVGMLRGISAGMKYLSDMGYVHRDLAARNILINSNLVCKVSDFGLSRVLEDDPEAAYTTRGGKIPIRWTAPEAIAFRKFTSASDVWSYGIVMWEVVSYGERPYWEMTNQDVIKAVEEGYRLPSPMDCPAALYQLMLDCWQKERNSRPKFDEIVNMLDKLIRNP
Test: DSF Tm panel
Type: binding
Details: 10 μM compound
recordedMetric: ΔTm at 10 µM (°C)
Report the figure in °C without appending any unit label.

compound="COc1ccc(CNC(=O)Nc2ccc3cc2OCCOCCNc2ccn4ncc-3c4n2)cc1 [compound 31]" measurementtarget="EPHA5A (Homo sapiens, UniProt P54756)" unitdescriptor=°C quantitativeresult=1.2
compound="Cc1cc(Cl)ccc1CNC(=O)Nc1ccc2cc1OCCOCCNc1ccn3ncc-2c3n1 [compound 23]" measurementtarget="EPHA5A (Homo sapiens, UniProt P54756)" unitdescriptor=°C quantitativeresult=1
compound="COc1ccc(CNC(=O)Nc2ccc3cc2OCCOCCNc2ccn4ncc-3c4n2)cc1F [compound 32]" measurementtarget="EPHA5A (Homo sapiens, UniProt P54756)" unitdescriptor=°C quantitativeresult=1.2
compound="COc1ccccc1CNC(=O)Nc1ccc2cc1OCCOCCNc1ccn3ncc-2c3n1 [compound 29]" measurementtarget="EPHA5A (Homo sapiens, UniProt P54756)" unitdescriptor=°C quantitativeresult=0.6

# evaluate next
Query block: Lab note: need ΔTm at 10 µM with EPHA5A (Homo sapiens, UniProt P54756) for entry O=C(NCc1ccc(Cl)cc1Cl)Nc1ccc2cc1OCCOCCNc1ccn3ncc-2c3n1 [compound 20] , please look it up.
Result block: 0.7
